src = patent US5510501A

System: BALB 3T3/H-ras cells
Method notes: Growth inhibition against BALB 3T3/H-ras cells
Format: cell-based
Experimental parameters: Mus musculus, 72 hours, Neutral Red
Outcome measure: IC50 (nM)

INSERT INTO measurements (query_smiles, uom, value) VALUES
  ('CC(=O)c1c(O)cc2cc3c(c(O)c2c1O)C(=O)c1c(O)cc(O)cc1C3=O', 'nM', 2400);
